I'd be grateful if you could share measured remaining at 0.25 h for these entries.
Assay: Metabolic stability of the compound in human serum assessed as compound residual ratio after 15 mins
Type: ADME, cell-free
Details: read-out: Stability
Non-standard residues stand in square brackets, D forms with d. Residues, ends and D or L forms follow the SMILES beside them. Arg(Me) = CNC(=N)NCCC[C@H](N)C(=O)O; azaGly = NNC(=O)O
One number for each entry, in %.

- CNC(N)=NCCC[C@H](NC(=O)[C@H](CC(C)C)NC(=O)CNC(=O)[C@H](Cc1ccccc1)NC(=O)[C@H](CO)NC(=O)[C@H](CC(N)=O)NC(=O)[C@H](Cc1c[nH]c2ccccc12)NC(=O)[C@H](CC(N)=O)NC(=O)[C@H](N)Cc1ccc(O)cc1)C(=O)N[C@@H](Cc1ccccc1)C(N)=O: 82.7

Then this compound:
Data request, read-out remaining at 0.25 h, for CNC(N)=NCCC[C@H](NC(=O)[C@H](CC(C)C)NC(=O)NNC(=O)[C@H](Cc1ccccc1)NC(=O)[C@H](CO)NC(=O)[C@H](CC(N)=O)NC(=O)[C@H](CO)NC(=O)[C@H](CC(N)=O)NC(=O)[C@H](N)Cc1ccc(O)cc1)C(=O)N[C@@H](Cc1ccccc1)C(N)=O (H-[dY]NSNSF[azaGly]L[Arg(Me)]F-NH2)
86.4

----------
Test: Metabolic stability of the compound in mouse serum assessed as compound residual ratio at 0.1 mM after 1 hr
Assay type: ADME, cell-free
Conditions: read-out: Stability
Non-standard residues stand in square brackets, D forms with d. Residues, ends and D or L forms follow the SMILES beside them. Arg(Me) = CNC(=N)NCCC[C@H](N)C(=O)O; azaGly = NNC(=O)O
Rule: remaining at 1 h, 100 µM below 50% gives 1, anything at or above gives 0.

Some solved entries appear below for comparison.
* CNC(N)=NCCC[C@H](NC(=O)[C@H](CC(C)C)NC(=O)NNC(=O)[C@H](Cc1ccccc1)NC(=O)[C@H](CO)NC(=O)[C@H](CC(N)=O)NC(=O)[C@@H](Cc1c[nH]c2ccccc12)NC(=O)[C@H](CC(N)=O)NC(=O)[C@H](N)Cc1ccc(O)cc1)C(=O)N[C@@H](Cc1ccccc1)C(N)=O | 0
* CNC(N)=NCCC[C@H](NC(=O)[C@H](CC(C)C)NC(=O)NNC(=O)[C@H](Cc1ccccc1)NC(=O)[C@H](CO)NC(=O)[C@H](CC(N)=O)NC(=O)[C@@H](NC(=O)[C@H](CC(N)=O)NC(=O)[C@H](N)Cc1ccc(O)cc1)[C@@H](C)O)C(=O)N[C@@H](Cc1ccccc1)C(N)=O (H-[dY]NTNSF[azaGly]L[Arg(Me)]F-NH2) | 0

Pending compound:
In the record for CNC(N)=NCCC[C@H](NC(=O)[C@H](CC(C)C)NC(=O)NNC(=O)[C@H](Cc1ccccc1)NC(=O)[C@H](CO)NC(=O)[C@H](CC(N)=O)NC(=O)[C@H](CC1CCCCC1)NC(=O)[C@H](CC(N)=O)NC(=O)[C@H](N)Cc1ccc(O)cc1)C(=O)N[C@@H](Cc1ccccc1)C(N)=O , is remaining at 1 h, 100 µM less than 50%?
1

----------
Non-standard residues stand in square brackets, D forms with d. Residues, ends and D or L forms follow the SMILES beside them. 2Nal = N[C@@H](Cc1ccc2ccccc2c1)C(=O)O; Arg(Me) = CNC(=N)NCCC[C@H](N)C(=O)O; 3Pal = N[C@@H](Cc1cccnc1)C(=O)O; d4Pal = N[C@H](Cc1ccncc1)C(=O)O; azaGly = NNC(=O)O
This document collects pIC50 values reported for KiSS-1 receptor (Rattus norvegicus, UniProt Q924U1).
One number for each entry, as −log10 of the molar value.

These solved cases illustrate the format of a correct answer.
• CNC(N)=NCCC[C@H](NC(=O)[C@H](CC(C)C)NC(=O)NNC(=O)[C@H](Cc1ccccc1)NC(=O)[C@H](CO)NC(=O)[C@H](CC(N)=O)NC(=O)[C@H](CO)NC(=O)[C@H](CC(N)=O)NC(=O)[C@H](N)Cc1ccc(O)cc1)C(=O)N[C@@H](Cc1ccccc1)C(N)=O (H-[dY]NSNSF[azaGly]L[Arg(Me)]F-NH2) = 9.37
• CNC(=N)NCCC[C@H](NC(=O)[C@H](CC(C)C)NC(=O)NNC(=O)[C@H](Cc1ccccc1)NC(=O)[C@H](CO)NC(=O)[C@H](CC(N)=O)NC(=O)[C@H](Cc1cccnc1)NC(=O)[C@H](CC(N)=O)NC(=O)[C@H](N)Cc1ccc(O)cc1)C(=O)N[C@@H](Cc1ccccc1)C(N)=O (H-[dY]N[3Pal]NSF[azaGly]L[Arg(Me)]F-NH2) = 9.05
• CNC(N)=NCCC[C@H](NC(=O)[C@H](CC(C)C)NC(=O)NNC(=O)[C@H](Cc1ccccc1)NC(=O)[C@H](CO)NC(=O)[C@H](CC(N)=O)NC(=O)[C@@H](Cc1ccncc1)NC(=O)[C@H](CC(N)=O)NC(=O)[C@H](N)Cc1ccc(O)cc1)C(=O)N[C@@H](Cc1ccccc1)C(N)=O (H-[dY]N[d4Pal]NSF[azaGly]L[Arg(Me)]F-NH2) = 9.55

// for each compound in input: emit pIC50
1. CNC(N)=NCCC[C@H](NC(=O)[C@H](CC(C)C)NC(=O)NNC(=O)[C@H](Cc1ccccc1)NC(=O)[C@H](CO)NC(=O)[C@H](CC(N)=O)NC(=O)[C@H](CC1CCCCC1)NC(=O)[C@H](CC(N)=O)NC(=O)[C@H](N)Cc1ccc(O)cc1)C(=O)N[C@@H](Cc1ccccc1)C(N)=O
2. CNC(N)=NCCC[C@H](NC(=O)[C@H](CC(C)C)NC(=O)CNC[C@H](Cc1ccccc1)NC(=O)[C@H](CO)NC(=O)[C@H](CC(N)=O)NC(=O)[C@H](Cc1c[nH]c2ccccc12)NC(=O)[C@H](CC(N)=O)NC(=O)[C@H](N)Cc1ccc(O)cc1)C(=O)N[C@@H](Cc1ccccc1)C(N)=O
3. CNC(=N)NCCC[C@H](NC(=O)[C@H](CC(C)C)NC(=O)NNC(=O)[C@H](Cc1ccccc1)NC(=O)[C@H](CO)NC(=O)[C@H](CC(N)=O)NC(=O)[C@H](Cc1ccc2ccccc2c1)NC(=O)[C@H](CC(N)=O)NC(=O)[C@H](N)Cc1ccc(O)cc1)C(=O)N[C@@H](Cc1ccccc1)C(N)=O (H-[dY]N[2Nal]NSF[azaGly]L[Arg(Me)]F-NH2)

9.62
8.85
9.70

Every entry's value here was drawn from ChEMBL document CHEMBL2150961.
